Taken from paper PMC6792352.

Test system: GH3-TRE-Luc cell line
Conditions: read-out: AC50 (uM) modified / 1000; Tox21_110001=Tox21_300477; viability, 1 nM T3 present, 24 h
PROPERTY_NAME: CC50 (µM)
Express the result in µM but write the number alone.

I'd like to know its CC50. The compound in question is O=[N+]([O-])c1ccc(O)cc1 [Sodium 4-nitrophenolate]
44.7

----------
Test system: GH3-TRE-Luc cell line
Conditions: read-out: AC50 (uM) modified / 1000; Tox21_110001=Tox21_201685; viability, 1 nM T3 present, 24 h
PROPERTY_NAME: CC50 (µM)
Use µM as the unit, but write only the number.

Endpoint output: CC50 of Cn1c(=O)c2c(ncn2C)n(C)c1=O . Value?
41.2

----------
Assay: in vitro
Conditions: rat, gh3-tre-luc cells, AC50 (uM) modified / 1000, Tox21_110001=Tox21_202438; viability, 1 nM T3 present, 24 h
PROPERTY_NAME: CC50 at 24 h

I have this compound here, O=[N+]([O-])c1ccc(Oc2ccc(Cl)cc2Cl)cc1 [Nitrofen] , and I need its recorded CC50 at 24 h.
> 90 µM

----------
Molecular target: human TRβ ligand-binding domain (Homo sapiens, UniProt P10828)
Sequence (P10828 217-461 limits assumed): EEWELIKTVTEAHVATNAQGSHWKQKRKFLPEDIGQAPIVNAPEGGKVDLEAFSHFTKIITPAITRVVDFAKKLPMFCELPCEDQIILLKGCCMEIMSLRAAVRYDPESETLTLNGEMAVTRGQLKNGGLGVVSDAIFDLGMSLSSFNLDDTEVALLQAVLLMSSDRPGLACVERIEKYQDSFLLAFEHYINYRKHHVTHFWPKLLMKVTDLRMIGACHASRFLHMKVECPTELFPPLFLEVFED
Assay: TRb-bla agonist mammalian one-hybrid beta-lactamase assay (TOX21_TRB_BLA_Agonist_Followup_ratio, aeid 2236)
Format: cell-based
Design: host or cells: GeneBLAzer UAS-bla HEK 293T
Conditions: HEK 293T one-hybrid, agonist mode; read-out: TRb-bla-Ag AC50
Below, each of the compounds is paired with its reported AC50 value.

For orientation, consider the following solved cases.
| COMPOUND | AC50 |
| --- | --- |
| C[C@]12CC[C@H]3C(=CCc4cc(O)ccc43)[C@@H]1CCC2=O [Equilin, reference compound] | > 92 µM |
| CC1=C(/C=C/C(C)=C\C=C\C(C)=C\C(=O)O)C(C)(C)CCC1 [9-cis Retinoic acid, reference compound] | > 92 µM |
| CC1=C(/C=C/C(C)=C/C=C/C(C)=C\C(=O)O)C(C)(C)CCC1 [13-cis Retinoic acid, reference compound] | > 92 µM |

Reported AC50, compound O=C(O)CCNC(=O)c1ccccc1 [Betamipron, reference compound] : ____
14 µM

----------
Assay: in vitro
Settings: rat, gh3-tre-luc cells, AC50 (uM) modified / 1000
PROPERTY_NAME: CC50 at 24 h

| MOLECULE | CC50 at 24 h |
| --- | --- |
| Cc1ccc2c(c1N)C(=O)c1ccccc1C2=O [1-Amino-2-methylanthraquinone] | 78.4 µM |
| CC[C@H]1OC(=O)[C@H](C)[C@@H](O[C@H]2C[C@@](C)(OC)[C@@H](O)[C@H](C)O2)[C@H](C)[C@@H](O[C@@H]2O[C@H](C)C[C@H](N(C)C)[C@H]2O)[C@](C)(O)C[C@@H](C)[C@@H]2N[C@@H](COCCOC)O[C@H]([C@H]2C)[C@]1(C)O [Dirithromycin] | > 50 µM |
| CC(C(=O)O)c1ccc(C(=O)c2cccs2)cc1 (stereo not shown) [Suprofen] | > 20 µM |

Any idea what its CC50 at 24 h is? The molecule is CS(=O)(=O)CCNCc1ccc(-c2ccc3ncnc(Nc4ccc(OCc5cccc(F)c5)c(Cl)c4)c3c2)o1 [Lapatinib]
> 50 µM

Try this molecule next: O=C(Cl)c1ccccc1[N+](=O)[O-] [2-Nitrobenzoyl chloride]
> 90 µM

Next molecule up: C#C[C@]1(O)CC[C@H]2[C@@H]3CCC4=Cc5oncc5C[C@]4(C)[C@H]3CC[C@@]21C [Danazol]
57.4 µM

Now the same for CCCCC(CC)COC(=O)c1ccccc1 (stereo not shown) [2-Ethylhexyl benzoate]
> 90 µM
